experiment: Kinetic solubility of the compound in phosphate buffer at pH 7.4 at 25 uM incubated for 2 hrs by nephelometry; type: physicochemical; settings: pH 7.4, 2 h
quantity.name: Kinetic_solubility

1) CCCCC[C@@H]1OC(=O)[C@@H](C)N(C)C(=O)[C@H](CCCCC)OC(=O)[C@@H](C)N(C)C(=O)[C@H](CCCCC)OC(=O)[C@@H](C)N(C)C(=O)[C@H](CCCCC)OC(=O)[C@@H](C)N(C)C(=O)[C@H](CCCCC)OC(=O)[C@@H](C)N(C)C1=O = Soluble
2) CCCCC[C@@H]1OC(=O)[C@@H](C)N(C)C(=O)[C@H](CCCCC)OC(=O)[C@@H](C)N(C)C(=O)[C@H](CCCCC)OC(=O)[C@@H](C)N(C)C(=O)[C@H](CCCCC)OC(=O)[C@@H](C)N(C)C(=O)[C@H](CCCCC)OC(=O)[C@@H](C)N(C)C(=O)[C@H](CCCCC)OC(=O)[C@@H](C)N(C)C1=O = Soluble
3) CCCCC[C@@H]1OC(=O)[C@@H](C)N(C)C(=O)[C@H](CCCCC)OC(=O)[C@@H](C)N(C)C(=O)[C@H](CCCCC)OC(=O)[C@@H](C)N(C)C1=O = Soluble
4) CCCCC[C@@H]1OC(=O)[C@@H](C)N(C)C(=O)[C@H](CCCCC)OC(=O)[C@@H](C)N(C)C(=O)[C@H](CCCCC)OC(=O)[C@@H](C)N(C)C(=O)[C@H](CCCCC)OC(=O)[C@@H](C)N(C)C1=O = Soluble

Task: Fill in the blank: the reported Kinetic_solubility of CCCCC[C@@H]1OC(=O)[C@@H](C)N(C)C(=O)[C@H](CCCCC)OC(=O)[C@@H](C)N(C)C1=O is ____.
Output: Soluble

Task: Fill in the blank: the reported Kinetic_solubility of CCCCC[C@H]1OC(=O)[C@H](C)N(C)C1=O is ____.
Output: Soluble

###

assay: Kinetic solubility of the compound in Hanks Bile Salt Solution at 25 uM incubated for 2 hrs by nephelometry; format: ADME
quantity.name: Kinetic_solubility

1) CCCCC[C@@H]1OC(=O)[C@@H](C)N(C)C(=O)[C@H](CCCCC)OC(=O)[C@@H](C)N(C)C(=O)[C@H](CCCCC)OC(=O)[C@@H](C)N(C)C(=O)[C@H](CCCCC)OC(=O)[C@@H](C)N(C)C(=O)[C@H](CCCCC)OC(=O)[C@@H](C)N(C)C1=O = Soluble
2) CCCCC[C@@H]1OC(=O)[C@@H](C)N(C)C(=O)[C@H](CCCCC)OC(=O)[C@@H](C)N(C)C(=O)[C@H](CCCCC)OC(=O)[C@@H](C)N(C)C(=O)[C@H](CCCCC)OC(=O)[C@@H](C)N(C)C1=O = Soluble
3) CCCCC[C@H]1OC(=O)[C@H](C)N(C)C1=O = Soluble
4) CCCCC[C@@H]1OC(=O)[C@@H](C)N(C)C(=O)[C@H](CCCCC)OC(=O)[C@@H](C)N(C)C(=O)[C@H](CCCCC)OC(=O)[C@@H](C)N(C)C1=O = Soluble
5) CCCCC[C@@H]1OC(=O)[C@@H](C)N(C)C(=O)[C@H](CCCCC)OC(=O)[C@@H](C)N(C)C(=O)[C@H](CCCCC)OC(=O)[C@@H](C)N(C)C(=O)[C@H](CCCCC)OC(=O)[C@@H](C)N(C)C(=O)[C@H](CCCCC)OC(=O)[C@@H](C)N(C)C(=O)[C@H](CCCCC)OC(=O)[C@@H](C)N(C)C1=O = Soluble

Next compound, please.
Task: Fill in the blank: the reported Kinetic_solubility of CCCCC[C@@H]1OC(=O)[C@@H](C)N(C)C(=O)[C@H](CCCCC)OC(=O)[C@@H](C)N(C)C1=O is ____.
Output: Soluble
